System: serotonin uptake, human blood platelets
assay text: Inhibition of serotonin uptake by human blood platelets
Assay type: cell-based
condition description: Platelet; human blood platelets; dose reducing the rate of serotonin uptake by 50%; read-out: Inhibition of serotonin uptake I50
observation type: IC50 (nM)
# output: bare number, implied unit nM

So the reported IC50 for c1ccc2c(CCC3CCNCC3)c[nH]c2c1 [Indalpine, 3-[2-(4-piperidyl)-ethyl]-indole, reference compound] , on serotonin uptake, human blood platelets, turned out to be 35

###

Examples of compounds with documented LD50 at 72 h follow.
assay text: Acute oral toxicity in male CD1 mice
condition description: mouse, in vivo, 3 days of observation

For orientation, consider the following solved cases.
CC(Cc1c[nH]c2ccccc12)C1=CCNCC1 (stereo not drawn) | 600 mg/kg
CC(Cc1c[nH]c2ccccc12)C1CCNCC1 (stereo not drawn) | ~400 mg/kg

GET /value?item= "C1=C(CCc2c[nH]c3ccccc23)CCNC1" &field=LD50 at 72 h returns 600 mg/kg
